Please respond with reported pEC50 for every item in the list.
- System: HCV 1a-H77 subgenomic replicon
- Experimental details: microbe, parasite or virus in culture
- Assay type: cell-based, HCV genotype 1a
- Condition notes: Hepatitis C virus, stable replicon, 5% FBS, absence of human plasma; read-out: Stable Replicon 1a H77 5% FBS EC50
Schema: pEC50 number; meaning minus log10 of the concentration expressed in molar units.

Consider CS(=O)(=O)N(CCCC(=O)O)c1cc2oc(-c3ccc(F)cc3)c(-c3ncc[nH]3)c2cc1C1CC1 . Its measured pEC50 is 6.57

The recorded pEC50 for entry CS(=O)(=O)N(CCC/C(N)=N/O)c1cc2oc(-c3ccc(F)cc3)c(-c3ncc[nH]3)c2cc1C1CC1 equals 7.44

Entry CC(C)(O)C(O)CCN(c1cc2oc(-c3ccc(F)cc3)c(-c3ncc[nH]3)c2cc1C1CC1)S(C)(=O)=O (centres unmarked) ; pEC50 = 7.83

Measured pEC50 of CC[S+]([O-])CCN(c1cc2oc(-c3ccc(F)cc3)c(C3=NOCCN3)c2cc1C1CC1)S(C)(=O)=O (centres unmarked) : 7.41

Measured pEC50, CS(=O)(=O)N(Cc1sc(Br)nc1C(F)(F)F)c1ccc2c(-c3ncc[nH]3)c(-c3ccccc3)oc2c1 : 5.62

Given item CC(C)=CCN(c1cc2oc(-c3ccc(F)cc3)c(-c3ncc[nH]3)c2cc1C1CC1)S(C)(=O)=O , the value recorded as its pEC50 is 7.05

Entry under test: CS(=O)(=O)N(CC1CCCC1)c1cc2oc(-c3ccc(F)cc3)c(-c3ncc[nH]3)c2cc1C1CC1 . Its pEC50 was 7.15

pEC50 measured on CC(C)CCN(c1cc2oc(-c3ccc(F)cc3)c(-c3ncc[nH]3)c2cc1C1CC1)S(C)(=O)=O = 7.54

Looking up CS(=O)(=O)N(CCCOc1ccccc1)c1cc2oc(-c3ccc(F)cc3)c(-c3ncc[nH]3)c2cc1C1CC1 , I see its pEC50 listed as 6.46

pEC50 in this record for CS(=O)(=O)NC(=O)CCCN(c1cc2oc(-c3ccc(F)cc3)c(-c3ncc[nH]3)c2cc1C1CC1)S(C)(=O)=O : 6.97

pEC50 in this record for CS(=O)(=O)Nc1cc2oc(-c3ccc(F)cc3)c(-c3nc(Cl)c[nH]3)c2cc1C1CC1 : 6.00

compound COc1ccc(-c2nn3ccc(-c4cc(C(=O)NC5(c6ccccc6)CC5)ccc4C)cc3c2C2=NOCCN2)cc1 , pEC50 observed: 7.48

What the record says about COC(=O)CCCN(c1cc2oc(-c3ccc(F)cc3)c(-c3ncc[nH]3)c2cc1C1CC1)S(C)(=O)=O : pEC50 is 7.24

Value of pEC50 reported for the compound C[S+]([O-])c1ccc(-c2ncc(CN(c3ccc4c(-c5ncc[nH]5)c(-c5ccccc5)oc4c3)S(C)(=O)=O)s2)cc1 (centres unmarked) is 6.80

====

- Tested on: HCV 1a-H77 subgenomic replicon
- Experimental details: microbe, parasite or virus in culture
- Type: cell-based, HCV genotype 1a
- Condition notes: Hepatitis C virus, stable replicon, 5% FBS, absence of human plasma; read-out: Stable Replicon 1a H77 5% FBS EC50
Task for the reader: assign each of the following compounds its reported pEC50.
Remember the convention: pEC50 equals -log10 of concentration in molar.

The recorded pEC50 with HCV 1a-H77 subgenomic replicon for CC(C)(O)CCCN(c1cc2oc(-c3ccc(F)cc3)c(-c3ncc[nH]3)c2cc1C1CC1)S(C)(=O)=O was 8.11

Record CS(=O)(=O)N(CCO)c1cc2oc(-c3ccc(F)cc3)c(-c3ncc[nH]3)c2cc1C1CC1 / HCV 1a-H77 subgenomic replicon, pEC50 recorded as 7.70

For the compound CC1NC(c2c(-c3ccc(F)cc3)oc3cc(N(CCS(C)(=O)=O)S(C)(=O)=O)c(C4CC4)cc23)=NO1 (stereo not shown) , the measured pEC50 on HCV 1a-H77 subgenomic replicon was 7.37

// pEC50 (HCV 1a-H77 subgenomic replicon) for CS(=O)(=O)N(CCCC(=O)N1CCOCC1)c1cc2oc(-c3ccc(F)cc3)c(-c3ncc[nH]3)c2cc1C1CC1 = 7.35

# CS(=O)(=O)N(CCCC(F)(F)F)c1cc2oc(-c3ccc(F)cc3)c(-c3ncc[nH]3)c2cc1C1CC1 with HCV 1a-H77 subgenomic replicon: pEC50 is 7.63

For CS(=O)(=O)N(CCCS(=O)(=O)c1ccccc1)c1cc2oc(-c3ccc(F)cc3)c(-c3ncc[nH]3)c2cc1C1CC1 on HCV 1a-H77 subgenomic replicon, measured pEC50 was 7.99

Record CC(=O)CCCCN(c1cc2oc(-c3ccc(F)cc3)c(-c3ncc[nH]3)c2cc1C1CC1)S(C)(=O)=O / HCV 1a-H77 subgenomic replicon, pEC50 recorded as 8.22

Form: item CS(=O)(=O)N(CCCN1CCCCC1)c1cc2oc(-c3ccc(F)cc3)c(C3=NOCCN3)c2cc1C1CC1 ; test system HCV 1a-H77 subgenomic replicon; pEC50: 7.35

Record CC(C)(O)CCN(c1cc2oc(-c3ccc(F)cc3)c(C3=NOCCN3)c2cc1C1CC1)S(C)(=O)=O ; system HCV 1a-H77 subgenomic replicon; pEC50 = 7.90

Test item CS(=O)(=O)N(CCCc1noc(=O)[nH]1)c1cc2oc(-c3ccc(F)cc3)c(-c3ncc[nH]3)c2cc1C1CC1 ; HCV 1a-H77 subgenomic replicon; reported pEC50 was 7.10

HCV 1a-H77 subgenomic replicon pEC50 of CC(C)CCN(c1cc2oc(-c3ccc(F)cc3)c(C3=NOC(C)(C)N3)c2cc1C1CC1)S(C)(=O)=O is 5.00

Item CS(=O)(=O)N(CCCc1ccccc1)c1cc2oc(-c3ccc(F)cc3)c(-c3ncc[nH]3)c2cc1C1CC1 was tested on HCV 1a-H77 subgenomic replicon; the reported pEC50 is 7.14

// assay HCV 1a-H77 subgenomic replicon, entry Cc1c[nH]c(-c2c(-c3ccc(F)cc3)oc3cc(N(CCCCO)S(C)(=O)=O)c(C4CC4)cc23)n1 , pEC50 value = 7.38

Param item: CS(=O)(=O)N(CCCS(N)(=O)=O)c1cc2oc(-c3ccc(F)cc3)c(C3=NOCN3)c2cc1C1CC1 ; param system: HCV 1a-H77 subgenomic replicon; output pEC50: 8.19

Reading of pEC50 for Cn1cc(-c2ncc(CN(c3ccc4c(-c5ncc[nH]5)c(-c5ccccc5)oc4c3)S(C)(=O)=O)s2)cn1 with HCV 1a-H77 subgenomic replicon: 6.46

Assay HCV 1a-H77 subgenomic replicon, sample CS(=O)(=O)N(CCCC(=O)O)c1cc2oc(-c3ccc(F)cc3)c(C3=NOCN3)c2cc1C1CC1 , pEC50 read: 6.96

Field pEC50 (system: HCV 1a-H77 subgenomic replicon) for entry CC(C)CCN(c1cc2oc(-c3ccc(F)cc3)c(-c3nc(C(F)(F)F)c[nH]3)c2cc1C1CC1)S(C)(=O)=O = 5.12

Given the compound COc1ccc(CN(c2cc3oc(-c4ccc(F)cc4)c(C4=NOCN4)c3cc2C2CC2)S(C)(=O)=O)cc1 and test system HCV 1a-H77 subgenomic replicon, the measured pEC50 is 6.87

So the reported pEC50 for CC(C)(C#N)CCCCN(c1cc2oc(-c3ccc(F)cc3)c(C3=NOCCN3)c2cc1C1CC1)S(C)(=O)=O , on HCV 1a-H77 subgenomic replicon, turned out to be 8.02

# lookup: CS(=O)(=O)N(CCCN1CCOCC1)c1cc2oc(-c3ccc(F)cc3)c(-c3ncc[nH]3)c2cc1C1CC1 on HCV 1a-H77 subgenomic replicon, pEC50 = 7.70

The reported pEC50 value, HCV 1a-H77 subgenomic replicon, for CS(=O)(=O)N(CCCc1nsc(=O)[nH]1)c1cc2oc(-c3ccc(F)cc3)c(-c3ncc[nH]3)c2cc1C1CC1 reads 7.26

Log: HCV 1a-H77 subgenomic replicon, compound CS(=O)(=O)N(CN1C(=O)c2ccccc2C1=O)c1cc2oc(-c3ccc(F)cc3)c(-c3ncc[nH]3)c2cc1C1CC1 , pEC50 = 5.58

Entry CS(=O)(=O)N(CCc1ccccc1)c1cc2oc(-c3ccc(F)cc3)c(-c3ncc[nH]3)c2cc1C1CC1 , HCV 1a-H77 subgenomic replicon data, pEC50 value: 6.99

The recorded pEC50 with HCV 1a-H77 subgenomic replicon for CC(c1ccccc1)N(c1ccc2c(-c3ncc[nH]3)c(-c3ccccc3)oc2c1)S(C)(=O)=O (stereo not shown) was 6.00

Here CC[S+]([O-])CCCN(c1cc2oc(-c3ccc(F)cc3)c(C3=NOCCN3)c2cc1C1CC1)S(C)(=O)=O (stereo not shown) was tested on HCV 1a-H77 subgenomic replicon, and its pEC50 came to 7.41

Response field pEC50 (HCV 1a-H77 subgenomic replicon) for item CS(=O)(=O)N(CC1CCCO1)c1cc2oc(-c3ccc(F)cc3)c(-c3ncc[nH]3)c2cc1C1CC1 (stereo not shown) : 7.16

With HCV 1a-H77 subgenomic replicon as the test system, CS(=O)(=O)N(CCCc1noc(=S)[nH]1)c1cc2oc(-c3ccc(F)cc3)c(-c3ncc[nH]3)c2cc1C1CC1 showed pEC50 of 7.49

Bench note, HCV 1a-H77 subgenomic replicon: CCC1NC(c2c(-c3ccc(F)cc3)oc3cc(N(CCC(C)C)S(C)(=O)=O)c(C4CC4)cc23)=NO1 (stereo not shown) , pEC50 reads 5.51
